# Test system: SAOS-2
# experiment_summary: Antiproliferative activity against human SAOS-2 cells assessed as […] cell proliferation at 10 uM incubated for 48 hrs by WST-1 assay relative to control
# Format: functional
Activity values for the molecules below.
Record the value in %, omitting the unit from your answer.

Sample records with Activity:
# smiles_string, Activity, %
data = [
    ("CC(C)S(=O)(=O)c1ccc(-c2cnc3[nH]cc(C(=O)N4CCC(c5ccccc5)CC4)c3c2)cc1", 30),
    ("CC(C)S(=O)(=O)c1ccc(-c2cnc3[nH]nc(C(=O)NCc4ccccc4)c3c2)cc1", 90),
    ("CC(C)S(=O)(=O)c1ccc(-c2cc(C(=O)Nc3ccccc3)n[nH]2)cc1", 107),
    ("CC(C)S(=O)(=O)c1ccc(-c2cc(C(=O)NCc3ccccc3)n[nH]2)cc1", 98),
]

Ask | Query Activity on SAOS-2 for CCN(CC)c1ccc(CNC(=O)c2n[nH]c3ncc(-c4ccc(S(=O)(=O)C(C)C)cc4)cc23)cc1
Reply | 83

Ask | SAOS-2 / Activity / CS(=O)(=O)c1ccc(-c2cnc3[nH]cc(C(=O)N4CCC(c5ccccc5)CC4)c3c2)cc1 : value?
Reply | 49

Ask | Tell me reported Activity for CC(C)S(=O)(=O)c1ccc(-c2cc(-c3nc(-c4ccccc4)no3)n[nH]2)cc1 , tested with SAOS-2.
Reply | 101

Ask | API: value(readout= Activity, system= SAOS-2, query= CS(=O)(=O)c1ccc(-c2cnc3[nH]cc(C(=O)NCc4ccccc4)c3c2)cc1 )
Reply | 89

Ask | Which measured Activity belongs to CCN1CCN(C2CCN(C(=O)c3c[nH]c4ncc(-c5ccc(S(=O)(=O)C(C)C)cc5)cc34)CC2)CC1 , tested on SAOS-2?
Reply | 100

Ask | Reported Activity for SAOS-2, given CCN1CCN(Cc2c[nH]c3ncc(-c4ccc(S(=O)(=O)C(C)C)cc4)cc23)CC1 ?
Reply | 97

Ask | Record lookup: for SAOS-2, what Activity belongs to CC(C)S(=O)(=O)c1ccc(-c2cnc3[nH]c(C(=O)NCc4ccccc4)cc3c2)cc1 ?
Reply | 100

Ask | Fill in the recorded Activity for this molecule, with SAOS-2 as test system: CCN(CC)c1ccc(CNC(=O)c2cc(-c3ccc(S(=O)(=O)C(C)C)cc3)[nH]n2)cc1
Reply | 78

Ask | Please tell me: Activity of CC(C)S(=O)(=O)c1ccc(-c2cnc3[nH]c(C(=O)Nc4ccc(N(C)C)cc4)cc3c2)cc1 , system SAOS-2?
Reply | 108

Ask | Report Activity for CC(C)S(=O)(=O)c1ccc(-c2cnc3[nH]cc(C(=O)Nc4ccc(N(C)C)cc4)c3c2)cc1 tested on SAOS-2.
Reply | 96

Ask | Return Activity measured with SAOS-2 given this molecule: CC(C)S(=O)(=O)c1ccc(-c2cnc3[nH]cc(CN4CCC(c5ccccc5)CC4)c3c2)cc1
Reply | 77

Ask | // map CS(=O)(=O)c1ccc(-c2cnc3[nH]nc(C(=O)N4CCC(c5ccccc5)CC4)c3c2)cc1 to recorded Activity (system: SAOS-2)
Reply | 92

Ask | Fill in the recorded Activity for this molecule, with SAOS-2 as test system: CC(C)S(=O)(=O)c1ccc(-c2cnc3[nH]cc(CN4CCc5ccccc5C4)c3c2)cc1
Reply | 101

Ask | Given the entry CS(=O)(=O)c1ccc(-c2cnc3[nH]c(C(=O)NCc4ccccc4)cc3c2)cc1 , what Activity was observed with SAOS-2?
Reply | 100

----------
# System: A2780
# experiment_summary: Antiproliferative activity against human A2780 cells assessed as […] cell proliferation at 10 uM incubated for 48 hrs in presence of 2 uM of CDDP by WST-1 assay relative to control
# Format: functional
assay_endpoint: Activity (%)
Give just the numeric value; % need not be written.

// solved cases for Activity follow
# smiles_string, target_under_test, Activity / %
measured = [
    ("CCN1CCN(Cc2c[nH]c3ncc(-c4ccc(S(=O)(=O)C(C)C)cc4)cc23)CC1", "A2780", 65),
    ("CCN1CCN(C(=O)c2cc(-c3ccc(S(C)(=O)=O)cc3)[nH]n2)CC1", "A2780", 65),
    ("CCN(CC)c1ccc(CNC(=O)c2n[nH]c3ncc(-c4ccc(S(=O)(=O)C(C)C)cc4)cc23)cc1", "A2780", 57),
    ("CC(C)S(=O)(=O)c1ccc(-c2cc(C(=O)N3CCc4ccccc4C3)n[nH]2)cc1", "A2780", 57),
]

Consider the record given below.
Ask | I'd like to know its Activity. The compound in question is CCN1CCN(C2CCN(C(=O)c3c[nH]c4ncc(-c5ccc(S(=O)(=O)C(C)C)cc5)cc34)CC2)CC1
Reply | 62

----------
# Tested on: PANC-1
# experiment_summary: Antiproliferative activity against human PANC-1 cells assessed as […] cell proliferation at 10 uM incubated for 48 hrs in presence of 15 uM of CDDP by WST-1 assay relative to control
# Format: functional
assay_endpoint: Activity (%)
Provide only the numeric value, understood in %.

# smiles_string, assay_endpoint, result
data = [
    ("CC(C)S(=O)(=O)c1ccc(-c2cc(C(=O)Nc3ccc(N(C)C)cc3)n[nH]2)cc1", "Activity", 65),
    ("CCN(CC)c1ccc(CNC(=O)c2c[nH]c3ncc(-c4ccc(S(C)(=O)=O)cc4)cc23)cc1", "Activity", 59),
    ("CCN1CCN(C(=O)c2c[nH]c3ncc(-c4ccc(S(=O)(=O)C(C)C)cc4)cc23)CC1", "Activity", 66),
    ("CC(C)S(=O)(=O)c1ccc(-c2cnc3[nH]c(C(=O)N4CCC(c5ccccc5)CC4)cc3c2)cc1", "Activity", 64),
    ("CC(C)S(=O)(=O)c1ccc(-c2cnc3[nH]c(C(=O)NCc4ccccc4)cc3c2)cc1", "Activity", 61),
    ("CC(C)S(=O)(=O)c1ccc(-c2cc(-c3nnc(-c4ccccc4)o3)n[nH]2)cc1", "Activity", 64),
    ("CC(C)S(=O)(=O)c1ccc(-c2cnc3[nH]c(C(=O)Nc4ccc(N(C)C)cc4)cc3c2)cc1", "Activity", 68),
    ("CCN(CC)c1ccc(CNC(=O)c2c[nH]c3ncc(-c4ccc(S(=O)(=O)C(C)C)cc4)cc23)cc1", "Activity", 58),
]

Ask | Fill in the blank: the reported Activity of CC(C)S(=O)(=O)c1ccc(-c2cnc3[nH]cc(C(=O)N4CCC(c5ccccc5)CC4)c3c2)cc1 is ____.
Reply | 28

Ask | Quick check: Activity of CS(=O)(=O)c1ccc(-c2cnc3[nH]cc(C(=O)NCc4ccccc4)c3c2)cc1 ?
Reply | 64

Ask | Record request: Activity value, item CCN1CCN(C2CCN(C(=O)c3cc4cc(-c5ccc(S(C)(=O)=O)cc5)cnc4[nH]3)CC2)CC1
Reply | 67

Ask | Consider the compound CCN1CCN(C(=O)c2c[nH]c3ncc(-c4ccc(S(C)(=O)=O)cc4)cc23)CC1 and give its measured Activity.
Reply | 70

Ask | Quick one: Activity for CC(C)S(=O)(=O)c1ccc(-c2cc(-c3nc(-c4ccccc4)no3)n[nH]2)cc1 ?
Reply | 62

Ask | # Activity lookup, item CC(C)S(=O)(=O)c1ccc(-c2cnc3[nH]c(C(=O)N4CCc5ccccc5C4)cc3c2)cc1
Reply | 57

Ask | Which value of Activity has been reported for CCN1CCN(Cc2c[nH]c3ncc(-c4ccc(S(=O)(=O)C(C)C)cc4)cc23)CC1 in the records?
Reply | 65

Ask | Using the record for CC(C)S(=O)(=O)c1ccc(-c2cnc3[nH]nc(C(=O)NCc4ccccc4)c3c2)cc1 , report its Activity.
Reply | 60

Ask | Quick one: Activity for CC(C)S(=O)(=O)c1ccc(-c2cnc3[nH]c(C(=O)Nc4ccccc4)cc3c2)cc1 ?
Reply | 65

Ask | Report Activity for CC(C)S(=O)(=O)c1ccc(-c2cnc3[nH]cc(C(=O)N4CCc5ccccc5C4)c3c2)cc1 please.
Reply | 66

----------
Recorded Activity by entry
# System: SAOS-2
# experiment_summary: Antiproliferative activity against human SAOS-2 cells assessed as […] cell proliferation at 10 uM incubated for 48 hrs by WST-1 assay relative to control
# Type: functional
Report field: quantity (unit follows the number).

Ask | I would be grateful if you could share the reported Activity for CCN(CC)c1ccc(CNC(=O)c2c[nH]c3ncc(-c4ccc(S(C)(=O)=O)cc4)cc23)cc1 .
Reply | 76%

Ask | Query: Activity; subject: CC(C)S(=O)(=O)c1ccc(-c2cc(C(=O)N3CCc4ccccc4C3)n[nH]2)cc1
Reply | 82%

Ask | Please look up its Activity: CC(C)S(=O)(=O)c1ccc(-c2cnc3[nH]cc(C(=O)N4CCc5ccccc5C4)c3c2)cc1
Reply | 85%

Ask | Item CC(C)S(=O)(=O)c1ccc(-c2cnc3[nH]c(C(=O)Nc4ccccc4)cc3c2)cc1 has what recorded Activity?
Reply | 103%

Ask | If you can, please state the reported Activity value of CC(C)S(=O)(=O)c1ccc(-c2cnc3[nH]nc(C(=O)N4CCC(c5ccccc5)CC4)c3c2)cc1 .
Reply | 79%

Ask | What does the data say about its Activity? Entry: CCN(CC)c1ccc(CNC(=O)c2cc3cc(-c4ccc(S(=O)(=O)C(C)C)cc4)cnc3[nH]2)cc1
Reply | 95%
